B1: CPEB3 Ribozyme (parent)
chain: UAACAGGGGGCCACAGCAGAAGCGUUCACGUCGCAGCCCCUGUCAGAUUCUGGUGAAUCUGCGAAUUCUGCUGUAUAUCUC

variants of: B1; experiment: self-cleavage, relative activity (ratio to wild type); higher = more cleavage; in vitro, sequencing
property: self-cleavage

Worked cases, answers included:
| record_sequence | self-cleavage |
| --- | --- |
| UAGCAGGGGGCCACAGCAGAAGCGUUCACGUCGCAGCCCCUGUCAGAUUCUGGUGGAUCUGCGAAUUCUGCUGUAUAUCUC [A3G A56G] | 0.77 |
| UAAUAGGGGGCCACAGCAGAAGCGUUCACGUCGCAGCCCCAGUCAGAUUCUGGUGAAUCUGCGAAUUCUGCUGUAUAUCUC [C4U U41A] | 0.48 |
| UAACAGGGGGCCACAGCAGAAGCGUUCACGUCGCAGCCCCUGUCAGAUUCUGGUGAAUCUGCGAAUUCAGCUGUAUAUCUA [U69A C81A] | 0.98 |
| UAACAGGGGGCCACAGCAGAAGCGUUCGCGUCGCAGCACCUGUCAGAUUCUGGUGAAUCUGCGAAUUCUGCUGUAUAUCUC [A28G C38A] | 0.29 |
| UAACAGGGGGCCCCAGCAGAAGCGUUCACGUCGCAGCCCCUGUCAGAUUCUGGUGAAUCUGCGAAUUCAGCUGUAUAUCUC [A13C U69A] | 0.31 |
| UAACAGGGGGCCACAGCAGAAGCGUUCACGUCGCAGCCCCUGUCAGAUUCUGGUGGAUCUGCGAAUUCUGCUGUAUAGCUC [A56G U78G] | 0.96 |

Batch: self-cleavage for all items listed.
1. UAACAGGGGGCCACAGCAGAAGCGUUCACGUCGCAGCCCCUGUCAGAUUCUGGGGAAACUGCGAAUUCUGCUGUAUAUCUC [U54G U58A]
2. UAACAGGGGGCCACAGCAGAAGCGUUCAUGUCGCAGCCCCUGUCAGAUUCUGGUGAUUCUGCGAAUUCUGCUGUAUAUCUC [C29U A57U]
3. UAACAGGGGGCCACAGCCGAAGCGUUCACGUCGCAGCCCCUGUCAGAUUCUGGUGAAUCUGCGAGUUCUGCUGUAUAUCUC [A18C A65G]
4. UAACGGGGGUCCACAGCAGAAGCGUUCACGUCGCAGCCCCUGUCAGAUUCUGGUGAAUCUGCGAAUUCUGCUGUAUAUCUC [A5G G10U]
5. UAACAGGGGGCCACAACAGAUGCGUUCACGUCGCAGCCCCUGUCAGAUUCUGGUGAAUCUGCGAAUUCUGCUGUAUAUCUC [G16A A21U]
6. UAACAGGGGGCCACAGCAGAAGCGUUCACGUCGCAGCCCCUGUCAGAUUCUGGUGAAUCUGCGAAUUCUGAUGUAUACCUC [C71A U78C]
7. UAACAGGGGGCCACAGCAGAAGCGUACACGUCGCAGCCCCUGUCAGAUUCUGGUGAGUCUGCGAAUUCUGCUGUAUAUCUC [U26A A57G]

Outgoing:
[0.2, 0.2, 0.26, 0.39, 0.2, 0.49, 0.78]
